# SYSTEM NAME: Cathepsin K (Homo sapiens, UniProt P43235)
# Sequence (P43235 whole entry): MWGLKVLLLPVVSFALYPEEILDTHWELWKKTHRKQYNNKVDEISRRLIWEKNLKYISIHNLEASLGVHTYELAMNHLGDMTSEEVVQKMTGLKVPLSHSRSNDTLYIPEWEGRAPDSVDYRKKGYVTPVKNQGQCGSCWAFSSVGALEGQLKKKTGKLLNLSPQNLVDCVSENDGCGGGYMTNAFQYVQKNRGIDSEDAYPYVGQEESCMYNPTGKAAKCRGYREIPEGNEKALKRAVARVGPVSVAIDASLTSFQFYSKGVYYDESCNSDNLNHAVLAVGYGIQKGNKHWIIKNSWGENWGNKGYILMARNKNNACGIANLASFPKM
# MEASUREMENT DESCRIPTION: Inhibitory activity against recombinant human cathepsin K
pIC50: −log10 of the molar value.
The entries below are paired with their reported pIC50.
RESULT TYPE: pIC50

1. C[C@@H](C=O)NC(=O)OC(C)(C)C ... 6.70
2. CC(C)(C)OC(=O)N[C@H](C=O)CSCc1ccccc1 ... 7.40
3. C/C=C/C[C@@H](C=O)NC(=O)OC(C)(C)C ... 6.82
4. CCC(C)[C@@H](C=O)NC(=O)OC(C)(C)C (stereo partly drawn) ... 6.60
5. CCC(C)[C@H](C=O)NC(=O)OC(C)(C)C (stereo partly drawn) ... 6.89
6. CCOC[C@@H](C=O)NC(=O)OC(C)(C)C ... 6.18
7. CC(C)(C)OC(=O)N[C@H](C=O)CCCC(F)(F)F ... 7.06
8. CC(C)(C)OC(=O)N[C@H](C=O)Cc1ccccc1 ... 6.96
9. CC(C)(C)OC(=O)N[C@H](C=O)CC1CCCCC1 ... 7.44
10. CC[C@@H](C=O)NC(=O)OC(C)(C)C ... 7.24
11. CCSC[C@@H](C=O)NC(=O)OC(C)(C)C ... 7.08
12. CC(C)[C@@H](C=O)NC(=O)OC(C)(C)C ... 6.80
13. CC#CC[C@@H](C=O)NC(=O)OC(C)(C)C ... 6.39
